measurement.description: amyloid nucleation score (Sup35N fusion, yeast selection) (log enrichment); library NNK2; higher = more nucleation; inactive = no reads after selection;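 note: zero at mode of non-aggregating sequences after 7 days selection at 30°C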
measure: amyloid nucleation score

[[record]]
substance = "KMFVILIIHTLLGAITAVCG"
value_observed = 0.186

[[record]]
substance = "EVWYSPDLTLLVYPTPR"
value_observed = 1.46

[[record]]
substance = "LHCLAISFNNFSLMVLYAGN"
value_observed = -0.187

[[record]]
substance = "SHSYFSYTFQILLCEAVRGG"
value_observed = -0.124

[[record]]
substance = "NYTWGEIYGH"
value_observed = -1.2

[[record]]
substance = "RLTPYTFTWSVFEMFNLRMP"
value_observed = -1.09

[[record]]
substance = "YVPMQY"
value_observed = 0.382

[[record]]
substance = "VGFSNGLDFDAVFNMKCQQW"
value_observed = -0.965


---

The substances listed here are annotated with their amyloid nucleation score.
measurement.description: amyloid nucleation score (Sup35N fusion, yeast selection) (log enrichment); library NNK1; higher = more nucleation; inactive = no reads after selection
measure: amyloid nucleation score

[[record]]
substance = "GNTWNIMFNICCLQGIECCL"
measure = "amyloid nucleation score"
value_observed = 7.35

[[record]]
substance = "STEIATKGGGQLGIISTNDA"
measure = "amyloid nucleation score"
value_observed = 0.254

[[record]]
substance = "WFFRLLAMSRRTEVAGTSPL"
measure = "amyloid nucleation score"
value_observed = 0.941

[[record]]
substance = "NMQTYGGLKE"
measure = "amyloid nucleation score"
value_observed = 0.116

[[record]]
substance = "ARRASVEFSYSTLERGMWRC"
measure = "amyloid nucleation score"
value_observed = 1.9

[[record]]
substance = "MAFLYFMFILFHARCLIRLP"
measure = "amyloid nucleation score"
value_observed = -0.177

[[record]]
substance = "AALENAGWLMAMANKRPSKR"
measure = "amyloid nucleation score"
value_observed = -0.614

[[record]]
substance = "HTYSWKISDSSYPTFPELFW"
measure = "amyloid nucleation score"
value_observed = 0.121

[[record]]
substance = "SSYVMVCMKTYWCQEL"
measure = "amyloid nucleation score"
value_observed = 2.45

[[record]]
substance = "LLLDLILY"
measure = "amyloid nucleation score"
value_observed = -0.505

[[record]]
substance = "TLCSSGKGRCLVAVT"
measure = "amyloid nucleation score"
value_observed = 0.115

[[record]]
substance = "LGMWRCKPRTTLAWSYLDPV"
measure = "amyloid nucleation score"
value_observed = 0.179

[[record]]
substance = "FCSLGKFGSRKCF"
measure = "amyloid nucleation score"
value_observed = 1.07

[[record]]
substance = "MWGARLRVWPGYERLSAFNH"
measure = "amyloid nucleation score"
value_observed = -0.552

[[record]]
substance = "ATMCVTLIWCYSSKQRMYKK"
measure = "amyloid nucleation score"
value_observed = 1.08

[[record]]
substance = "NSGGVWSHYFVVVMRYL"
measure = "amyloid nucleation score"
value_observed = 0.083

[[record]]
substance = "FCVSTRRWGRAEYKRMDLLW"
measure = "amyloid nucleation score"
value_observed = 0.077

[[record]]
substance = "RYCHVLIVIAQANQSFKDVQ"
measure = "amyloid nucleation score"
value_observed = 7.72

[[record]]
substance = "DLSRDAIRSKSEGAVR"
measure = "amyloid nucleation score"
value_observed = -1.24

[[record]]
substance = "MLWRYKRCNFARMFNLRVYV"
measure = "amyloid nucleation score"
value_observed = -0.822

[[record]]
substance = "YSGHWLVHLPCHHQVR"
measure = "amyloid nucleation score"
value_observed = -0.028

[[record]]
substance = "NEWVCLS"
measure = "amyloid nucleation score"
value_observed = -0.179

[[record]]
substance = "VVLNCYIYVIPA"
measure = "amyloid nucleation score"
value_observed = 3.39

[[record]]
substance = "AGWKTRHQGRVIVLGFWEGW"
measure = "amyloid nucleation score"
value_observed = 0.059

[[record]]
substance = "AAMYSLICNPI"
measure = "amyloid nucleation score"
value_observed = 0.518

[[record]]
substance = "GHWLYMTYLCL"
measure = "amyloid nucleation score"
value_observed = 0.459

[[record]]
substance = "GIFHANLTMVWRHIEVKEGC"
measure = "amyloid nucleation score"
value_observed = 0.696

[[record]]
substance = "EGRYTRDFKCRFSSERHSPS"
measure = "amyloid nucleation score"
value_observed = 0.014

[[record]]
substance = "YSLYTNSHVPAWHSPSISHG"
measure = "amyloid nucleation score"
value_observed = -0.38

[[record]]
substance = "YSSGYLWFFIGTS"
measure = "amyloid nucleation score"
value_observed = -1.38

[[record]]
substance = "FTDTEYLQGLDIGVGMERLY"
measure = "amyloid nucleation score"
value_observed = -0.218

[[record]]
substance = "IVMFVGFCGENKLAWDSRRK"
measure = "amyloid nucleation score"
value_observed = 5.03

[[record]]
substance = "FCMVDYWVLVPCDEIGTDVV"
measure = "amyloid nucleation score"
value_observed = 0.116

[[record]]
substance = "QIYASKWPYEIEFKNFMRVA"
measure = "amyloid nucleation score"
value_observed = 0.247

[[record]]
substance = "YNEERGCSAC"
measure = "amyloid nucleation score"
value_observed = -0.209


Recorded values, source the supplement of paper PMC12042874.
